This collection of values is drawn from the nanobody polyreactivity screen of Harvey et al. (2022).

protocolDescription: yeast display, Sf9 membrane polyspecificity reagent, FACS + sequencing; frameworks hold sequencing errors
measuredQuantity: polyreactivity (PSR sort gate)

QVQLVESGGGLVQARGSLRLSCAASGIIFYPNAMGWYRQAPGKERELVASIRSGGITTYADSVKGRFTISRDNAKNTVYLQMNSLKPEDTAVYDCATRSYYRYATFAYYYWGQGTQVTVSS	high polyreactivity
QVQLLESWGGLVQAGGSLRLSCAASGRTSTRNAMGWSRQAPGKERELVAAISWSGGRTHYADSVKWRFTISRDNAMNYVYYQMNSLKQEATAVYYCAAAYTGGQYYYSWGQGTQVSVSS	high polyreactivity

###

protocolDescription: yeast display, Sf9 membrane polyspecificity reagent, FACS + sequencing; frameworks hold sequencing errors
measuredQuantity: polyreactivity (PSR sort gate)

QVQLVESGGGLVQAGGSLRLSCAASGITLGYYAMGWYRQAPGKERELVAAISYSSGSTYYADSVKGRFTIARDTAKNTVYLQMNSLKPEDTAVYYCAKYVTYYLPTYSPSGKHDYWGQVTQVTVSS	low polyreactivity
QVQLVESGGGLVQAGGSLRLSCAASGRTFWTYTMGWYRQAPGKERELVAAISYSGSRTYYADSVKGRFTISRDNAKNTVYLQMNSQKPEETAVYYWATDDSDYLYRTVSAWEYDYWGQGTQVTVSS	low polyreactivity
